- assay-notes: Rat pharmacokinetic studies, intramuscular administration
- Type: in vivo, male Sprague Dawley Rats
- reported-conditions: male, Sprague Dawley, rat, plasma, im; 123 mg/kg, Sesame oil + 1% Benzyl Alcohol; read-out: Half-life t1/2 (hour) prodrug (converted)
readout-kind: half-life

Recorded half-life of C=C1CC[C@@]2(O)C3Cc4ccc(OC(=O)CCCCCCC/C=C/CCCCCCCC)c5c4[C@@]2(CCN3CC2CC2)[C@H]1O5 , please.
884 h

Recorded half-life of C=C1CC[C@@]2(O)C3Cc4ccc(OC(=O)OCCCCCCCCCCCC)c5c4[C@@]2(CCN3CC2CC2)[C@H]1O5 , please.
213 h

====

- assay-notes: Solubility determination in oil (Table 10)
- reported-conditions: 40 °C, organic solvent or mixture, thermodynamic from solid, Approximate Solubility in Excipient: Ethanol, Heating Temp. 40 °C, Obs. Temp. 40 °C
- Method: A known amount of test substance (˜40 mg) was weighed into the vial, 100 μL of oil was added and heated to 60° C. and then system was slurried to reach equilibrium. […] Extra oil was added into the vial once compound precipitated out and then the system was re-equilibrated at 1000 rpm at room temperature (25° C.). Final concentration was determined by HPLC method as described below in Table 6a and 6b.
readout-kind: solubility

* C=C1CC[C@@]2(O)C3Cc4ccc(OC(=O)CCCCCCC/C=C\CCCCCCCC)c5c4[C@@]2(CCN3CC2CC2)[C@H]1O5 [Compound 36] | 20 to 30 mg/mL
* C=C1CC[C@@]2(O)C3Cc4ccc(OC(=O)OCCCCCCCCCCCC)c5c4[C@@]2(CCN3CC2CC2)[C@H]1O5 [Compound 6] | 120 to 170 mg/mL

Recorded solubility of C=C1CC[C@@]2(O)C3Cc4ccc(OC(=O)OCCCCCCCCCCCCCCCC)c5c4[C@@]2(CCN3CC2CC2)[C@H]1O5 [Compound 19] , please.
27 to 42 mg/mL

====

- assay-notes: Dog pharmacokinetic studies, deep intramuscular administration
- Assay type: in vivo, Beagle dogs
- reported-conditions: Beagle, dog, plasma, im, 30 mg/kg, IM 30 mg/kg, Sesame oil + 1% Benzyl Alcohol; read-out: AUC0-inf (ng · h/mL) prodrug
readout-kind: AUC(0-inf) (ng·h/mL)
Write the value in ng·h/mL as a bare number.

• C=C1CC[C@@]2(O)C3Cc4ccc(OC(=O)CCCCCCC/C=C/CCCCCCCC)c5c4[C@@]2(CCN3CC2CC2)[C@H]1O5 = 521

Recorded AUC(0-inf) of C=C1CC[C@@]2(O)C3Cc4ccc(OC(=O)OCCCCCCCCCCCC)c5c4[C@@]2(CCN3CC2CC2)[C@H]1O5 , please.
398

====

- assay-notes: Polymorph screening of solid state drug substances (Table 23)
- Format: physicochemical
- reported-conditions: Isopropanol, stirred 50 °C 72 hours
readout-kind: XRPD results (Dried)

• CCCCCCCCCCCCOC(=O)Oc1ccc2c3c1O[C@H]1C(=O)CC[C@@]4(O)C(C2)N(CC2CC2)CC[C@]314 = Pattern A
• C=C1CC[C@@]2(O)C3Cc4ccc(OC(=O)OCCCCCCCCCCCCCCCC)c5c4[C@@]2(CCN3CC2CC2)[C@H]1O5 = Pattern A
• C=C1CC[C@@]2(O)C3Cc4ccc(OC(=O)CCCCCCCCCCCCCCCCCCCCC)c5c4[C@@]2(CCN3CC2CC2)[C@H]1O5 = Pattern A

====

- assay-notes: Liver S9 fraction stability, human
- Format: in vitro ADME
- reported-conditions: human liver S9 1.0 mg/ml, 2 μM, 37° C.
readout-kind: % remaining at 60 minutes, Human (%)
Write the value in % as a bare number.

Study these solved cases before continuing.
• C=C1CC[C@@]2(O)C3Cc4ccc(OC(=O)OCCCCCCCCCCCC)c5c4[C@@]2(CCN3CC2CC2)[C@H]1O5 = 5.3
• C=C1CC[C@@]2(O)C3Cc4ccc(OCOC(=O)OCCCCCCCCCCCC)c5c4[C@@]2(CCN3CC2CC2)[C@H]1O5 = 3.5
• C=C1CC[C@@]2(O)C3Cc4ccc(OC(=O)CCCCCCC/C=C/CCCCCCCC)c5c4[C@@]2(CCN3CC2CC2)[C@H]1O5 = 59.8
• CCCCCCCCCCCC(=O)OCN1C(=O)CCc2ccc(OCCCCN3CCN(c4cccc(Cl)c4Cl)CC3)cc21 [Aripiprazole lauroxil, reference compound] = 47.8

Recorded % remaining at 60 minutes, Human of CCCCCCCCCCCCCCCC(=O)OC1CCCn2c1nc(C)c(CCN1CCC(c3noc4cc(F)ccc34)CC1)c2=O (centres unmarked) [Paliperidone palmitate, reference compound] , please.
47.8

====

- assay-notes: Solubility determination in oil (Table 10)
- reported-conditions: 25 °C, oil or lipid, thermodynamic from solid, Solubility by volumetric flask method: Cottonseed oil, volumetric flask method; Heating Temp. 60 °C, Obs. Temp. 25 °C
readout-kind: solubility

Study these solved cases before continuing.
* C=C1CC[C@@]2(O)C3Cc4ccc(OCOC(=O)OCCCCCCCCCCC)c5c4[C@@]2(CCN3CC2CC2)[C@H]1O5 [Compound 5] | > 402 mg/mL
* C=C1CC[C@@]2(O)C3Cc4ccc(OC(=O)OCCCCCCCCCCC)c5c4[C@@]2(CCN3CC2CC2)[C@H]1O5 [Compound 3] | > 399 mg/mL

Recorded solubility of CCCCCCCCCCCOC(=O)OCOc1ccc2c3c1O[C@H]1C(=O)CC[C@@]4(O)C(C2)N(CC2CC2)CC[C@]314 [Compound 4] , please.
> 395 mg/mL

====

- assay-notes: Dog pharmacokinetic studies, deep intramuscular administration
- Assay type: in vivo, Beagle dogs
- reported-conditions: Beagle, dog, plasma, im, 30 mg/kg, IM 30 mg/kg, Cottonseed + 1% Benzyl Alcohol; read-out: AUC0-inf (ng · h/mL) prodrug
- Procedure: The purpose of this study is to determine the pharmacokinetics of test compounds in plasma, following deep intramuscular administration to Beagle dogs (n=3, unless otherwise specified). The dose formulation (concentration—400 mg base equivalents/ml in sesame oil+1% benzyl alcohol, unless otherwise specified) was administered via deep intramuscularly (unless otherwise specified). […] The dose volume will be determined by the animals' body weight collected on the morning of dosing day. […]
readout-kind: AUC(0-inf) (ng·h/mL)
Write the value in ng·h/mL as a bare number.

Recorded AUC(0-inf) of C=C1CC[C@@]2(O)C3Cc4ccc(OCOC(=O)CCCCCCCCCCCCC)c5c4[C@@]2(CCN3CC2CC2)[C@H]1O5 [Compound 45] , please.
100

====

- assay-notes: Solubility determination in oil (Table 10)
- reported-conditions: 25 °C, oil or lipid, thermodynamic from solid, Approximate Solubility in Excipient: Cottonseed oil, Heating Temp. 60 °C, Obs. Temp. 25 °C
readout-kind: solubility at 24 h

Study these solved cases before continuing.
• CCCCCCCCCCCCCCCC(=O)Oc1ccc2c3c1O[C@H]1C(=O)CC[C@@]4(O)C(C2)N(CC2CC2)CC[C@]314 = < 50 mg/mL
• CCCCCCCCCCCCOC(=O)Oc1ccc2c3c1O[C@H]1C(=O)CC[C@@]4(O)C(C2)N(CC2CC2)CC[C@]314 = < 51 mg/mL

# evaluate next
Recorded solubility at 24 h of C=C1CC[C@@]2(O)C3Cc4ccc(OC(=O)CCCCCCC/C=C\CCCCCCCC)c5c4[C@@]2(CCN3CC2CC2)[C@H]1O5 , please.
> 407 mg/mL

====

- assay-notes: Polymorph screening of solid state drug substances (Table 23)
- Type: physicochemical
- reported-conditions: EtOAc, stirred 50 °C 72 hours, dried solid
readout-kind: Dry method and appearance

- CCCCCCCCCCCCCCCCOC(=O)Oc1ccc2c3c1O[C@H]1C(=O)CC[C@@]4(O)C(C2)N(CC2CC2)CC[C@]314: Evaporation/white powder
- C=C1CC[C@@]2(O)C3Cc4ccc(OC(=O)OCCCCCCCCCCCCCCCC)c5c4[C@@]2(CCN3CC2CC2)[C@H]1O5: Evaporation/white powder
- C=C1CC[C@@]2(O)C3Cc4ccc(OC(=O)OCCCCCCCCCCCCCC)c5c4[C@@]2(CCN3CC2CC2)[C@H]1O5: Evaporation/white powder

====

Attribute: solubility at 24 h
- assay-notes: Solubility determination in oil (Table 10)
- reported-conditions: 25 °C, oil or lipid, thermodynamic from solid, Approximate Solubility in Excipient: Sesame oil, Heating Temp. 60 °C, Obs. Temp. 25 °C

- C=C1CC[C@@]2(O)C3Cc4ccc(OC(=O)OCCCCCCCCCCCCCCCCCC)c5c4[C@@]2(CCN3CC2CC2)[C@H]1O5: < 51 mg/mL

Recorded solubility at 24 h of CCCCCCCC/C=C/CCCCCCCC(=O)OCOc1ccc2c3c1O[C@H]1C(=O)CC[C@@]4(O)C(C2)N(CC2CC2)CC[C@]314 , please.
< 354 mg/mL

Recorded solubility at 24 h of CCCCCCCCCCCCCCCCCCCC(=O)Oc1ccc2c3c1O[C@H]1C(=O)CC[C@@]4(O)C(C2)N(CC2CC2)CC[C@]314 , please.
< 52 mg/mL

Recorded solubility at 24 h of CCCCCCCCCCCCCCC(=O)Oc1ccc2c3c1O[C@H]1C(=O)CC[C@@]4(O)C(C2)N(CC2CC2)CC[C@]314 , please.
99.4 to 199 mg/mL

Recorded solubility at 24 h of C=C1CC[C@@]2(O)C3Cc4ccc(OC(=O)CCCCCCCCCCCCCCCCC)c5c4[C@@]2(CCN3CC2CC2)[C@H]1O5 , please.
< 50 mg/mL

Recorded solubility at 24 h of C=C1CC[C@@]2(O)C3Cc4ccc(OC(=O)CCCCCCC/C=C\CCCCCCCC)c5c4[C@@]2(CCN3CC2CC2)[C@H]1O5 , please.
> 408 mg/mL

Hey, just so you know, these numbers are from patent US20190308988A1.
